- test.protocol: solvent given as SMILES
- run.conditions: in CO
# emission maximum values compiled below

smiles.text | emission maximum / nm
CC(=O)Nc1ccc(S(=O)(=O)O)c(/N=N/c2c(O)c3ccccc3n(C)c2=O)c1 | 512
CCNc1cc2c(cc1C)C(c1ccccc1C(=O)O)=C1CCCC(/C=C/C3=[N+](C)c4ccccc4C3(C)C)=C1O2 | 720
O=[N+]([O-])c1ccc(/C=C/c2c[nH]c3ccccc23)cc1 | 567
CN(C)c1ccc(/C=C/c2ccc(-c3nc(C#N)c(C#N)n3C)cc2)cc1 | 514
CCOC(=O)COc1ccc(/C=C/c2c(CC)c(C)c3n2[B-](F)(F)[N+]2=C(c4[nH]c(C)c(CC)c4C)c4ccccc4C2=C3C)cc1 | 711
c1ccc(-c2c3c(c(-c4ccccc4)c4cc5ccccc5cc24)Cc2c(c(-c4ccccc4)c4cc5ccccc5cc4c2-c2ccccc2)C3)cc1 | 398
CCCCCCCCN1c2ccc(C#Cc3cc(C(F)(F)F)cc(C(F)(F)F)c3)cc2Sc2cc(C=O)ccc21 | 517
CC1(C)[C@@H]2CC[C@]1(C)c1nc3cc(-c4cccs4)ccc3nc12 | 451
CNCCCC1c2ccccc2C=Cc2ccccc21 | 358
CCOC(=O)c1ccc(O)c(-c2[nH]c(=O)n3c2-c2ccccc2C3=O)c1 | 490
COc1ccc(-c2nc3c(c4c2-c2ccc(C#N)cc2CC4)-c2ccc(C#N)cc2CC3)cc1 | 426
Cc1c(C2=[N+]3C(=Cc4c(C)c5ccccc5n4[B-]3(F)F)c3ccccc32)[nH]c2ccccc12 | 643
O=C(O)c1ccc2ccc3cccc4ccc1c2c34 | 380
c1ccc(N(c2ccccc2)c2ccc(-c3ncc(-c4ccc(-c5cnc(-c6ccc(N(c7ccccc7)c7ccccc7)cc6)s5)s4)s3)cc2)cc1 | 503
C(=C\c1cnccn1)/c1ccc2nccnc2c1 | 443
C/C(=C\c1ccc(C)cc1)c1nc2ccccc2s1 | 400
COc1ccccc1-c1nc(-c2ccccc2)c2ccccn12 | 475
Nc1ccccc1C(=O)O | 406
COc1ccc2c3c(cccc13)C(=O)N(C)C2=O | 450
COc1ccc(-n2c3ccccc3c3cc(C=C(C#N)C#N)ccc32)cc1 | 534

---

- test.protocol: solvent given as SMILES
- run.conditions: in Cc1ccccc1
outcome.measure: emission maximum

smiles.text | outcome.measure | result
COc1cc2c3c4c(c5ccc(C(C)(C)C)cc5c5c(OC)cc(OC)c(c2c(OC)c1OC)c45)=[N+]1C3=Nc2c3c4cc(OC)c(OC)c(OC)c4c4c(OC)cc(OC)c5c6cc(C(C)(C)C)ccc6c(c3c54)n2[B-]1(F)F | emission maximum | 907 nm
O=C(c1ccccc1)c1ccc(-n2c3ccccc3c3c2c2ccccc2n3-c2ccccc2)cc1 | emission maximum | 520 nm
CC(C)(C)c1ccc2c(c1)c1cc(C(C)(C)C)cc3c1n2-c1cc(-c2ccccc2F)cc2c1B3c1cc(C(C)(C)C)cc3c4cc(C(C)(C)C)ccc4n-2c13 | emission maximum | 499.76 nm
CCCCCCCCOc1ccc2c3cccc4c(OCCCCCCCC)ccc(c5cccc1c52)c43 | emission maximum | 467.99 nm
CCCCCCCCCC1(CCCCCCCCC)c2cc(C#Cc3ccc(/C=C/c4ccc(N(CCCCCCCC)CCCCCCCC)cc4)cc3)ccc2-c2ccc(C#Cc3ccc(/C=C/c4ccc(N(CCCCCCCC)CCCCCCCC)cc4)cc3)cc21 | emission maximum | 464 nm
CN(C)c1ccc(-c2cc(=O)c3ccccc3o2)cc1 | emission maximum | 417 nm
Cc1cc(C)c(C2=C3C=c4c(c5ccc(C(C)(C)C)cc5c5cc(C(C)(C)C)ccc45)=[N+]3[B-](F)(F)n3c2cc2c4ccc(C(C)(C)C)cc4c4cc(C(C)(C)C)ccc4c23)c(C)c1 | emission maximum | 715 nm

---

- test.protocol: solvent given as SMILES
- run.conditions: in CCCCCC
The threshold is 400 nm. Values of emission maximum beneath it are tagged MET; values meeting or exceeding it are tagged NOT MET.

compound | label.value
O=c1c2ccccc2sc2ccc(-n3c4ccccc4c4ccccc43)cc12 | NOT MET
CC(C)(C)c1cc2ccc3cc(C(C)(C)C)cc4c(N(c5ccccc5)c5ccccc5)cc(c1)c2c34 | NOT MET
N#CSC1=CC2=C(c3ccccc3)c3cc(SC#N)c(N4CCOCC4)n3[B-](F)(F)[N+]2=C1N1CCOCC1 | NOT MET
[C-]#[N+]c1ccc(-c2ccc(N(C)C)cc2)cc1 | MET
c1csc(-c2cnc(-c3cccs3)c3nonc23)c1 | NOT MET
CC(C)(C)c1ccc(-c2nc3c4ccccc4c4ccccc4c3n2-c2ccc(C(C)(C)C)cc2)cc1 | MET
CC(C)[Si](C#Cc1c2cc3ccccc3cc2c(C#C[Si](C(C)C)(C(C)C)C(C)C)c2nc3c(nc12)C1c2ccccc2C3c2ccccc21)(C(C)C)C(C)C | NOT MET
O=C1c2cccc3cc4ccccc4c(c23)C(=O)N1Cc1ccccn1 | NOT MET
O=C1c2ccccc2C(=O)C1C1C(=O)c2c3ccccc3cc3cc4ccccc4c1c23 (stereo not drawn) | NOT MET
CCCCN1C(=O)C(=CC=C2N(CCCC)c3ccccc3N2CCCC)C(=O)N(CCCC)C1=S | NOT MET
COc1ccc(-n2cccc2)cc1 | MET
CC1=CC(C)=[N+]2C1=C(c1ccc(N3CCOCC3)cc1)c1c(C)cc(C)n1[B-]2(F)F | NOT MET
OC1(c2ccc(-c3cccs3)s2)CCC(c2ccccc2)CC1 (stereo not drawn) | NOT MET
COc1cc(OC)cc(C2=[O+][B-](F)(F)OC(c3cccs3)=C2)c1 | NOT MET
CC(C)[Si](C#Cc1c2ccccc2c(C#C[Si](C(C)C)(C(C)C)C(C)C)c2nc3c(ccc4ccccc43)nc12)(C(C)C)C(C)C | NOT MET
N#Cc1cc(-n2c3ccccc3c3cccnc32)c(-n2c3ccccc3c3cccnc32)cc1C#N | MET
COC(=O)C1=C(C(=O)OC)C2=C[C@H]3c4ccccc4[C@]2(S1)c1ccccc13 | NOT MET
CC1(C)c2ccccc2N(c2ccc3c(c2)c2cc(N4c5ccccc5C(C)(C)c5ccccc54)ccc2c2nc(C#N)c(C#N)nc32)c2ccccc21 | NOT MET
COc1ccc2cc(-c3ccc(C)cc3)c(=O)oc2c1 | NOT MET
COc1cccc(-n2c(-c3ccccc3)nc(C)c2C)c1 | MET
CCCSC1=[N+]2C(=C(c3ccccc3)c3ccc(SCCC)n3[B-]2(F)F)C=C1SC#N | NOT MET
N#CSC1=CC2=C(c3ccccc3)c3ccc(N4CCOCC4)n3[B-](F)(F)[N+]2=C1N1CCOCC1 | NOT MET
Cc1ccccc1/C(C#N)=C/c1ccc(N(C)C)cc1 | NOT MET
CC1CC=C(c2ccc(-c3ccc(C#N)s3)s2)CC1 (stereo not drawn) | NOT MET
CCCCN1C(=O)C(=C/C=C/C=C/C=C2N(CCCC)c3ccccc3N2CCCC)C(=O)N(CCCC)C1=S | NOT MET
CC(C)[Si](C#Cc1ccc(C#C[Si](C(C)C)(C(C)C)C(C)C)c2nc3c(ccc4cc5ccccc5cc43)nc12)(C(C)C)C(C)C | NOT MET
CCc1ccc2ccc(-c3ccccc3)nn12 | NOT MET
O=CC1=C(c2ccc(-c3cccs3)s2)CCC1 | NOT MET

---

- test.protocol: solvent given as SMILES
- run.conditions: in CCO
The threshold is 500 nm. Values of emission maximum beneath it are tagged met; values meeting or exceeding it are tagged not met.

smiles.text | label.value
C(=C\c1ccc(N(c2ccccc2)c2ccccc2)cc1)/c1ccc(-c2cc(-c3ccccn3)nc(-c3ccccn3)c2)cc1 | not met
CCOC(=O)c1cc(C(=O)OCC)c2ccc(N(C)C)cc2n1 | not met
c1ccc2cc3cnccc3cc2c1 | met
Cc1c(C)n2c(COC(=O)CNC(=O)OC(C)(C)C)c(C)c(=O)n2c1=O | met
CN1C(=O)/C(=C/c2ccncc2)N=C1c1ccccc1 | met
CN(C)c1ccc2c(-c3cc(N)ccc3C(=O)[O-])c3ccc(=[N+](C)C)cc-3oc2c1 | not met
CCOC(=O)c1ccccc1-c1c2ccc(=[N+](CC)CC)cc-2oc2cc(N(CC)CC)ccc12 | not met
C(=C\c1cnccn1)/c1ccc2nccnc2c1 | met
CCOC(=O)CSc1nc(-c2ccccc2)c(C)c(C#N)c1C#N | met
COc1cnc(-c2cc[n+](C3=C(F)C(F)(F)C(F)(F)[C-]3F)cc2)s1 | met

---

- test.protocol: solvent given as SMILES
- run.conditions: in CN(C)C=O

compound | emission maximum
CCn1c2ccccc2c2cc(C#Cc3cc(C#Cc4ccc5c(c4)c4ccccc4n5CC)nc(N4CCCCC4)n3)ccc21 | 469 nm
CCn1c2sccc2c2c3nsnc3c3c4ccsc4n(CC)c3c21 | 552 nm
COc1cc(/C=C/C(=O)CC(=O)/C=C/c2ccc(O)c(OC)c2)ccc1O | 542 nm
O=c1oc2ccccc2cc1-c1nc2ccccc2o1 | 445 nm
CCc1ccc(/C=C/c2ccc(-c3nnc(-c4ccc(-c5cc6ccccc6s5)cc4)o3)cc2)cc1 | 429 nm
Cc1ccccc1/C(C#N)=C/c1ccc(N(C)C)cc1 | 456 nm
O=C(N/N=C/c1ccccc1O)c1cccc2ccccc12 | 560 nm
COc1cnc(-c2cc[n+](C3=C(F)C(F)(F)C(F)(F)[C-]3F)cc2)s1 | 485 nm
CCCCn1c2ccc(C#N)cc2c2cc(C#N)cc(-c3ccc(N(c4ccccc4)c4ccccc4)cc3)c21 | 472 nm
CCN(CC)c1ccc2cc(/C=C/C(O)=C3\CC/C(=C\c4cc5ccc(N(CC)CC)cc5oc4=O)C3=O)c(=O)oc2c1 | 638 nm
CN(c1ccccc1)c1ccc(-c2ccc(-c3ccc(N(C)c4ccccc4)cc3)c3nc(-c4ccccc4)c(-c4ccccc4)nc23)cc1 | 661 nm
O=P1(c2ccccc2)C(c2ccc(N(c3ccccc3)c3ccccc3)cc2)=Cc2cc3ccccc3cc21 (centres undefined) | 551 nm
O=C1c2ccc3c4c(Oc5ccccc5)cc5c6c(ccc(c7c(Oc8ccccc8)cc(c2c37)C(=O)N1c1ccc(O)cc1)c64)C(=O)N(c1ccc(O)cc1)C5=O | 576 nm
O=C1c2ccc3c4ccc5c6c(ccc(c7ccc(c2c37)C(=O)N1c1ccncc1)c64)C(=O)N(c1ccncc1)C5=O | 574 nm
CCN(CC)c1ccc2cc(/C=C/C(=C(C#N)C#N)c3ccc4c(c3)c3ccccc3n4CC)c(=O)oc2c1 | 629 nm
CN(C)c1ccc(/C=C/c2cc[n+](CCCCCCCCCCCC[n+]3ccc(/C=C/c4ccc(N(C)C)cc4)cc3)cc2)cc1 | 602 nm
CN(C)c1ccc(/C=C/c2nc3c4ccccc4c4ccccc4c3[nH]2)cc1 | 478 nm
c1ccc2c(c1)[nH]c1c3[nH]c4ccccc4c3c3nsnc3c21 | 493 nm
N#C/C(=C/Nc1ccc(C#N)cc1)c1nc(-c2ccccc2)cs1 | 436 nm
